- System: Ctenocephalides felis
- study_conditions: 24 h; data from laboratory 1
measure_name: C. felis Mortality (%) 24 h
Give just the number in %; leave the unit off.

Here are 10 compounds together with their reported answers.
# mol_smiles, C. felis Mortality (%) 24 h
measured = [
    ("CC(=NNC(=O)Nc1ccccc1Cl)c1cc(Cl)ccc1NS(=O)(=O)C(F)(F)F", 10),
    ("CCCN(N=C(C)c1cc(Cl)ccc1NS(=O)(=O)C(F)(F)F)c1cccc(Cl)c1", 25),
    ("CC(=NN(C)c1ccccc1)c1cccc(Cl)c1NS(=O)(=O)C(F)(F)F", 63),
    ("O=S(=O)(Nc1ccc(Cl)cc1-c1ccn(-c2ccccc2)n1)C(F)(F)F", 8),
    ("CC(=NNc1ccc(Cl)cc1)c1ccc(NS(=O)(=O)C(F)(F)F)cc1", 7),
    ("CC(=NN(c1cc(Cl)cc(Cl)c1)C(C)C)c1cc(Cl)ccc1NS(=O)(=O)C(F)(F)F", 85),
    ("CC(=NN(C)c1ccccc1)c1cc2c(cc1NS(=O)(=O)C(F)(F)F)OCO2", 31),
    ("CC(=NN(C)c1ccccn1)c1cc(Cl)ccc1NS(=O)(=O)C(F)(F)F", 30),
    ("CN(N=C1CCc2cccc(NS(=O)(=O)C(F)(F)F)c21)c1ccccc1", 13),
    ("CCN(N=C(C)c1cc(Cl)ccc1NS(=O)(=O)C(F)(F)F)c1ccccc1", 100),
]

-- ask Sample `CC(=NN(c1ccc(Br)cc1)C(C)C)c1cc(Cl)ccc1NS(=O)(=O)C(F)(F)F` — what was its C. felis Mortality (%) 24 h?
-- reply 100

-- ask Okay, and `CC(=NNc1ccc(C)cc1)c1cc(Cl)ccc1NS(=O)(=O)C(F)(F)F` ?
-- reply 28

-- ask Note, next up: `CC(=NNc1ccc(F)cc1)c1ccc(C(F)(F)F)cc1NS(=O)(=O)C(F)(F)F`
-- reply 16

-- ask Item: `CC(=Nn1cc2ccccc2n1)c1cc(Cl)ccc1NS(=O)(=O)C(F)(F)F`
-- reply 2

-- ask And what about the compound `CC(=Nn1cnc2ccccc21)c1cc(Cl)ccc1NS(=O)(=O)C(F)(F)F` ?
-- reply 7

-- ask Would you kindly repeat that for `CC(=NN(C)c1ccccc1Cl)c1cc(Cl)ccc1N(C)S(=O)(=O)C(F)(F)F` ?
-- reply 0

-- ask Same question, `CC(=NN(C)c1cccc(Cl)n1)c1cc(Cl)ccc1NS(=O)(=O)C(F)(F)F` this time
-- reply 23

----------
- Test system: Rhipicephalus sanguineus
- experimental_details: Rapid screening protocol for topical application on brown dog ticks (% mortality)
- study_conditions: data from laboratory 2
Collected R. sanguineus Mortality (%) 24 h values appear next to each entry.
Give the figure together with its unit, number first.

Worked cases, answers included:
# mol_smiles, experimental_result
data = [
    ("CC(=NN(C)c1ccc(C)cc1)c1cc(Cl)ccc1NS(=O)(=O)C(F)(F)F", "100%"),
    ("CC(=NN(c1ccc(C(F)(F)F)cc1)C(C)C)c1cc(Cl)ccc1NS(=O)(=O)C(F)(F)F", "58%"),
]

-- ask Return R. sanguineus Mortality (%) 24 h measured with Rhipicephalus sanguineus given this molecule: `CCN(N=C(C)c1cc(Cl)ccc1NS(=O)(=O)C(F)(F)F)c1cccc(F)c1`
-- reply 98%

-- ask Lookup `CC(=NN(C)C(=O)c1ccc(Cl)cc1)c1cc(Cl)ccc1NS(=O)(=O)C(F)(F)F`
-- reply 100%

-- ask Now the same for `CC(=NN(C)c1ccccc1)c1cc(Cl)ccc1N(C)S(=O)(=O)C(F)(F)F`
-- reply 8%

-- ask // repeat for `CC(=NN(C)c1ccccc1F)c1cc(Cl)ccc1NS(=O)(=O)C(F)(F)F` and report
-- reply 100%
